Assignment: determine reported protein stability index for the given sequences.
# TEST_METHOD_NOTES: protein stability index of a GFP-peptide fusion (yeast GPS) (PSI 1-4); higher = more stable; sorted into four equal gates, so the index is relative within each strain
# APPLIED_CONDITIONS: san1∆
Answers are plain numbers.

Example entries begin here.
[[record]]
construct_sequence = "DFNEIVQYLSGAHGNSD [POP3]"
reported_result = 1.18

[[record]]
construct_sequence = "GYCDDIAAMVAQKCGWT [SIR2]"
reported_result = 2.44

[[record]]
construct_sequence = "IQFGAKNMFEKKASKVT [ISW2]"
reported_result = 2.68


Hi team, please reply with protein stability index for each item in this list.
1. HNKLIQFGNACISLSGV [SSN2]
2. TKTILSGTDGSTIGILL [SRP72]
3. REMALCRELHNKHLTTL [SSN3]
4. IRIYFTEKDDNKTNNED [NUT1]
5. PIGRHEELLAQYESQAP [SWP82]

[2.73, 3.06, 1.87, 2.84, 2.07]
